Can you tell me AUC for the items I'm about to list?
Test: blood levels upon intramuscular administration to mice
Type: in vivo
Conditions: mouse, im, 20 mg/kg
Report the figure along with its unit, number first.

Given CON=C(C(=O)NC1C(=O)N2C(C(=O)[O-])=C(C=CC[N+](C)(C)C)CS[C@H]12)c1nsc(N)n1 (stereo partly drawn) [Compound I-1D] , respond with its AUC.
11000 ng·h/mL

Given C#CCON=C(C(=O)NC1C(=O)N2C(C(=O)[O-])=C(/C=C/C[n+]3ccc(C(N)=O)cc3)CSC12)c1nsc(N)n1 (stereo not drawn) [Compound I-4H] , respond with its AUC.
16000 ng·h/mL

Given CNC(=O)c1cc[n+](C/C=C/C2=C(C(=O)[O-])N3C(=O)C(NC(=O)/C(=N\OC)c4nsc(N)n4)C3SC2)cc1 (stereo not drawn) [Compound I-1M] , respond with its AUC.
14000 ng·h/mL

Given CON=C(C(=O)NC1C(=O)N2C(C(=O)[O-])=C(C=CC[n+]3ccccc3)CSC12)c1nsc(N)n1 (stereo not drawn) [Compound I-1B] , respond with its AUC.
11000 ng·h/mL

Given CO/N=C(\C(=O)NC1C(=O)N2C(C(=O)[O-])=C(/C=C/C[n+]3cccc4c3CCC4)CSC12)c1nsc(N)n1 (stereo not drawn) [Compound I-1O] , respond with its AUC.
17000 ng·h/mL

Given CCO/N=C(\C(=O)NC1C(=O)N2C(C(=O)[O-])=C(C=CC[n+]3ccc(C(=O)O)cc3)CSC12)c1nsc(N)n1 (stereo not drawn) [Compound I-2N] , respond with its AUC.
12000 ng·h/mL
